B1: library; a variant is named by its letters at N, in order (parent)
chain: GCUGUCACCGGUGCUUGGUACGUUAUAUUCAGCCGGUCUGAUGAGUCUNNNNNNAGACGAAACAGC

# Variants of: B1
# measurement.description: FACS-Seq fitted mean relative fluorescence mCherry/BFP without ligand (log10 relative fluorescence); HEK293T overexpressing SLC46A1; higher = higher reporter protein expression
# stated.conditions: without (6R,S)-folinic acid; ligand present: no
Label scheme for FACS-Seq fitted mean (log10): lower than 0.3 is NO, 0.3 and above is YES.

GCCGAG = YES
CUCCGC = YES
UAGGUA = NO
CCGAAG = NO
ACGACA = NO
UGUGGU = NO
UUGUUA = YES
UAUAAA = NO
AUAUGG = NO
AACCCC = YES
UAAUAG = NO
AAUAUC = YES
GGGUUG = YES
AAAGAG = NO
GGUAAA = YES
UAAGGG = NO
UAUGAG = NO
UUCCUG = NO
UAAGCA = YES
AACAUG = YES
GUUGAA = NO
GCUCGU = YES
AAAGGG = NO
AGCCUG = YES
GAAAGA = YES
